# Tested on: MT2
# assayName: Lethal dose (LD5) concentration inhibiting growth of MT-2 cells by 5%
# Assay type: toxicity, cell-based
# cond: human
Here, each record is paired with measured LD5 data.
measurementLabel: LD5

{"compound": "O=C(/C=C/c1ccc(O)c(O)c1)O[C@@H]1C[C@](O)(C(=O)O)C[C@@H](OC(=O)/C=C/c2ccc(O)c(O)c2)[C@H]1O", "targetEntity": "MT2", "obsValue": "290 µM"}
{"compound": "O=C(O)[C@]1(O)C[C@@H](O)[C@@H](O)[C@H](O)C1 [QUINIC ACID]", "targetEntity": "MT2", "obsValue": "907 µM"}
{"compound": "O=C(/C=C/c1ccc(O)c(O)c1)OC(C(=O)O)C(OC(=O)/C=C/c1ccc(O)c(O)c1)C(=O)O (stereo in doubt; 1 (L))", "targetEntity": "MT2", "obsValue": "264 µM"}
{"compound": "O=C(/C=C/c1ccc(O)c(O)c1)O[C@@H]1CC(OC(=O)/C=C/c2ccc(O)c(O)c2)(C(=O)O)C[C@@H](O)C1O (single isomer, unassigned) [CYNARIN]", "targetEntity": "MT2", "obsValue": "145 µM"}
{"compound": "O=C(OC(C(=O)O)C(OC(=O)c1ccc(O)c(O)c1)C(=O)O)c1ccc(O)c(O)c1 (stereo not drawn)", "targetEntity": "MT2", "obsValue": "90 µM"}
{"compound": "O=C(CCc1ccc(O)c(O)c1)OC(C(=O)O)C(OC(=O)CCc1ccc(O)c(O)c1)C(=O)O (stereo not drawn)", "targetEntity": "MT2", "obsValue": "> 263 µM"}
{"compound": "O=C(/C=C\\c1ccc(O)c(O)c1)OC1CCCC(OC(=O)/C=C\\c2ccc(O)c(O)c2)C1 (stereo not drawn)", "targetEntity": "MT2", "obsValue": "36.4 µM"}
{"compound": "O=C(OC(C(=O)O)C(OC(=O)c1ccc(F)c(F)c1)C(=O)O)c1ccc(F)c(F)c1 (stereo not drawn)", "targetEntity": "MT2", "obsValue": "28.9 µM"}

====

Here, each record is paired with measured IC50 data.
# targetEntity: Human immunodeficiency virus type 1 integrase (Human immunodeficiency virus 1, UniProt Q7ZJM1)
# Sequence (Q7ZJM1 whole entry): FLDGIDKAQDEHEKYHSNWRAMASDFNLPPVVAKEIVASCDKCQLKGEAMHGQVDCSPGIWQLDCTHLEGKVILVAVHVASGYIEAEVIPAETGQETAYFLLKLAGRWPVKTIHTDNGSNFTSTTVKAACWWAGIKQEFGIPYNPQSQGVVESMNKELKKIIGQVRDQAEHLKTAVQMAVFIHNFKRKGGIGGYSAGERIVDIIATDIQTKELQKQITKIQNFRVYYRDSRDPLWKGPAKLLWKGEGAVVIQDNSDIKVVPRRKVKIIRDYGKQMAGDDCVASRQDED
measurementLabel: IC50 (nM)

{"compound": "O=C(/C=C\\c1ccc(O)c(O)c1)OC1CCC(OC(=O)/C=C\\c2ccc(O)c(O)c2)CC1 (centres undefined)", "measurementLabel": "IC50", "obsValue": 1010}
{"compound": "O=C(/C=C/c1ccc(O)c(O)c1)O[C@@H]1CC(OC(=O)/C=C/c2ccc(O)c(O)c2)(C(=O)O)C[C@@H](O)C1O (single isomer, unassigned)", "measurementLabel": "IC50", "obsValue": 1600}
{"compound": "O=C(OC(C(=O)O)C(OC(=O)c1ccc(O)c(O)c1)C(=O)O)c1ccc(O)c(O)c1 (centres undefined)", "measurementLabel": "IC50", "obsValue": 430}
{"compound": "O=C(/C=C/c1ccc(O)c(O)c1)O[C@@H]1C[C@@](O)(C(=O)O)CC(O)[C@@H]1OC(=O)/C=C/c1ccc(O)c(O)c1 (some centres undefined)", "measurementLabel": "IC50", "obsValue": 1400}

====

# targetEntity: Human immunodeficiency virus type 1 integrase (Human immunodeficiency virus 1, UniProt Q7ZJM1)
Here, each record is paired with measured IC50 data.

{"compound": "O=C(/C=C/c1ccc(O)c(O)c1)OCCCCOC(=O)/C=C/c1ccc(O)c(O)c1", "op": ">", "IC50 / nM": 10000}
{"compound": "O=C(/C=C\\c1ccc(O)c(O)c1)OC1CCCC(OC(=O)/C=C\\c2ccc(O)c(O)c2)C1 (centres undefined)", "op": "=", "IC50 / nM": 1630}
{"compound": "O=C(/C=C/c1ccc(O)c(O)c1)OCCOC(=O)/C=C/c1ccc(O)c(O)c1", "op": ">", "IC50 / nM": 10000}
{"compound": "O=C(/C=C/c1ccc(O)c(O)c1)OC1CCCCC1OC(=O)/C=C/c1ccc(O)c(O)c1 (centres undefined)", "op": ">", "IC50 / nM": 10000}
{"compound": "O=C(/C=C/c1ccc(O)c(O)c1)OC1CCCC(OC(=O)/C=C/c2ccc(O)c(O)c2)C1 (centres undefined)", "op": "=", "IC50 / nM": 1800}
{"compound": "O=C(/C=C/c1ccc(O)c(O)c1)Oc1cc(OC(=O)/C=C/c2ccc(O)c(O)c2)cc(C(=O)O)c1", "op": "=", "IC50 / nM": 6900}
{"compound": "O=C(OC(C(=O)O)C(OC(=O)c1cccc(O)c1O)C(=O)O)c1cccc(O)c1O (centres undefined)", "op": "=", "IC50 / nM": 1070}
{"compound": "O=C(/C=C/c1ccc(O)c(O)c1)OC1C[C@](O)(C(=O)O)C[C@@H](O)[C@H]1OC(=O)/C=C/c1ccc(O)c(O)c1 (some centres undefined)", "op": "=", "IC50 / nM": 600}
{"compound": "O=C(/C=C\\c1ccc(O)c(O)c1)OC1CCCCC1OC(=O)/C=C\\c1ccc(O)c(O)c1 (centres undefined)", "op": "=", "IC50 / nM": 8360}

Recorded values, source ChEMBL document CHEMBL1132572.
